# TARGET_UNDER_TEST: Glucose-dependent insulinotropic receptor (Homo sapiens)
# EXPERIMENT: Agonist activity at human GPR119 overexpressed in CHO cells assessed as stimulation of cAMP production by HTRF assay relative to AR231453
# Format: functional, cell-based
READOUT_TYPE: Efficacy (%)

Here are 3 compounds together with their reported answers.
CCOC(=O)C(C)(Cc1ccc(S(C)(=O)=O)cc1)c1ccnc2c(-c3ccc(Cl)cc3)cnn12 (racemic)    5
CCOC(=O)[C@](C)(Cc1ccccc1)c1ccnc2c(-c3ccc(Cl)cc3)cnn12    83
Fc1cccc(Cl)c1CCc1ccnc2c(-c3ccc(Cl)cc3)cnn12    15

(1) CCOC(=O)C(C)(Cc1ccccc1)c1ccnc2c(-c3ccc(C(F)(F)F)cc3)cnn12 (racemic)
(2) CCOC(=O)[C@@](C)(Cc1ccccc1)c1ccnc2c(-c3ccc(Cl)cc3)cnn12
Exercise: Hey, between 1 and 2 which has a smaller measured Efficacy? To answer, give the label that identifies your chosen option.
Key: 2

(A) CCOC(=O)C(C)(Cc1ccccc1)c1ccnc2c(-c3cccc(Cl)c3)cnn12 (racemic)
(B) CCOC(=O)C(C)(Cc1ccccc1)c1ccnc2c(-c3nc(C(C)C)no3)cnn12 (racemic)
(C) CCc1cnc(N2CCC(c3nc(COc4ccc(-n5cnnn5)cc4)cs3)CC2)nc1 [MBX-2982]
(D) CCOC(=O)C(C)(Cc1ccccc1)c1ccnc2c(Cc3ccc(Cl)cc3)cnn12 (racemic)
Exercise: Provide the items ranked by increasing Efficacy. State the ranking by listing the labels in the requested order.
Key: D, B, A, C
(D: 10%, B: 43%, A: 66%, C: 100%)

(I) CCOC(=O)C(C)(Cc1cccc(C)c1)c1ccnc2c(-c3ccc(Cl)cc3)cnn12 (racemic)
(II) CCOC(=O)C(C)(CC1CCN(S(C)(=O)=O)CC1)c1ccnc2c(-c3ccc(Cl)cc3)cnn12 (racemic)
Exercise: Hey, between I and II which has a smaller measured Efficacy? To answer, give the label that identifies your chosen option.
Key: II
(II: 50%, I: 76%)

(a) CCCC(Cc1ccccc1)(C(=O)OCC)c1ccnc2c(-c3ccc(Cl)cc3)cnn12 (racemic)
(b) CCOC(=O)C(C)c1ccnc2c(-c3ccc(Cl)cc3)cnn12 (racemic)
Exercise: Rank a against b by their Efficacy values and give the higher one. To answer, give the label that identifies your chosen option.
Key: a
(a: 68%, b: 32%)

(A) CCOC(=O)C(C)(Cc1ccccc1)c1ccnc2c(C3CCN(C(=O)OC(C)(C)C)CC3)cnn12 (racemic)
(B) CCOC(=O)[C@@](C)(Cc1ccccc1)c1ccnc2c(-c3ccc(C(F)(F)F)cc3)cnn12
Exercise: Hey, between A and B which has a smaller measured Efficacy? To answer, give the label that identifies your chosen option.
Key: B
(B: 22%, A: 62%)

(A) CC(Cc1ccccc1)(c1ccnc2c(-c3ccc(C(F)(F)F)cc3)cnn12)S(C)(=O)=O (racemic)
(B) CC(C)(C)OC(=O)N1CCC(OCc2nc(-c3ccncc3)no2)CC1
Exercise: Hey, between A and B which has a smaller measured Efficacy? To answer, give the label that identifies your chosen option.
Key: A
(A: 57%, B: 85%)

(A) CCOC(=O)C(C)(Cc1ccccc1)c1ccnc2c(-c3ccccc3Cl)cnn12 (racemic)
(B) CCOC(=O)[C@](C)(Cc1ccccc1)c1ccnc2c(-c3ccc(C(F)(F)F)cc3)cnn12
Exercise: Rank A against B by their Efficacy values and give the higher one. To answer, give the label that identifies your chosen option.
Key: B
(B: 80%, A: 54%)

(A) CCOC(=O)C(Cc1ccccc1)c1ccnc2c(-c3ccccc3)cnn12 (racemic)
(B) CCOC(=O)[C@](C)(Cc1ccccc1)c1cnnc2c(-c3ccc(C(F)(F)F)cc3)cnn12
Exercise: Hey, between A and B which has a smaller measured Efficacy? To answer, give the label that identifies your chosen option.
Key: A
